- tested.on: NS3 (Hepatitis C virus)
- Sequence (A3EZJ3 whole entry): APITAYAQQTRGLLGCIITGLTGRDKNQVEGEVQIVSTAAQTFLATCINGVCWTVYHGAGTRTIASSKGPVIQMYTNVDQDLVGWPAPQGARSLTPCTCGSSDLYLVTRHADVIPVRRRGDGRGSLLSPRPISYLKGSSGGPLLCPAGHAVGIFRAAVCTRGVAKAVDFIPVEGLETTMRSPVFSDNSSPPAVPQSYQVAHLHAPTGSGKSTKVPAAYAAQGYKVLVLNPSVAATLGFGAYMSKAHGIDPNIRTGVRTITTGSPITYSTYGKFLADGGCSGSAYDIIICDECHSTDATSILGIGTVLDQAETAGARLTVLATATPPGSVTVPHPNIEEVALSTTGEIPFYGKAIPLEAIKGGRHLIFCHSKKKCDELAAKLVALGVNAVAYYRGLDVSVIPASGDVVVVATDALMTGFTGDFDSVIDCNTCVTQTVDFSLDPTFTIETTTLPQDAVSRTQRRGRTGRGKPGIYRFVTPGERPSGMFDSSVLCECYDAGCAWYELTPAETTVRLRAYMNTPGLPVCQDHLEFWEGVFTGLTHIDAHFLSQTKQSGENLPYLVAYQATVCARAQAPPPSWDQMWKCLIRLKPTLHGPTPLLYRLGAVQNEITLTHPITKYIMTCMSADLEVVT
- experiment: Inhibitory activity against hepatitis C virus (HCV) NS3 protease (full-length)
- Set-up: species or system Hepacivirus hominis
Where a SMILES comes first, the peptide text is derived from it. [ ]: non-standard residue; d: D form. Dip = N[C@H](C(=O)O)C(c1ccccc1)c1ccccc1; 2Nal = N[C@@H](Cc1ccc2ccccc2c1)C(=O)O; dGla = N[C@H](CC(C(=O)O)C(=O)O)C(=O)O; Cha = N[C@@H](CC1CCCCC1)C(=O)O
I'd appreciate it if you marked entries Y when Ki is lower than 1000 nM and N when it is not.

[[record]]
molecule = "CSCC[C@H](NC(=O)[C@H](CCC(=O)O)NC(=O)[C@H](CC(=O)O)NC(C)=O)C(=O)N[C@@H](CCC(=O)O)C(=O)N[C@@H](CC1CCCCC1)C(=O)N[C@@H](CS)C(=O)O (Ac-DEME[Cha]C-OH)"
tested_on = "NS3 (Hepatitis C virus)"
group = "Y"


Input: In the record for CC(=O)N[C@@H](CC(=O)O)C(=O)N[C@@H](CCC(=O)O)C(=O)N[C@H](C(=O)N[C@@H](CCCCN)C(=O)N[C@@H](CC1CCCCC1)C(=O)N[C@@H](CS)C(=O)O)C(c1ccccc1)c1ccccc1 (Ac-DE[Dip]K[Cha]C-OH) , is Ki less than 1000 nM?
Output: N

Input: is_below(Ki, 1000 nM) for CC[C@H](C)[C@H](NC(C)=O)C(=O)N[C@@H](CC1CCCCC1)C(=O)N[C@@H](CS)C(=O)O (Ac-Ile-[Cha]-Cys-OH) ?
Output: N

Input: Determine if CC(=O)N[C@@H](CCC(=O)O)C(=O)N[C@@H](CC1CCCCC1)C(=O)N[C@@H](CS)C(=O)O (Ac-Glu-[Cha]-Cys-OH) shows Ki strictly lower than 1000 nM.
Output: N

Input: hey, is Ki for CSCC[C@H](NC(=O)[C@H](CCC(=O)O)NC(=O)[C@H](CC(=O)O)NC(C)=O)C(=O)N[C@@H](CCC(=O)O)C(=O)N[C@@H](Cc1ccc2ccccc2c1)C(=O)N[C@@H](CS)C(=O)O (Ac-DEME[2Nal]C-OH) lower than 1000 nM or not?
Output: N

Input: Check if Ki falls below 1000 nM for `CC(=O)N[C@@H](CC(=O)O)C(=O)N[C@H](CCC(=O)O)C(=O)N[C@@H](CC(C)C)C(=O)N[C@@H](CCC(=O)O)C(=O)N[C@@H](CC1CCCCC1)C(=O)N[C@@H](CS)C(=O)O` .
Output: Y

Input: I wonder whether CC[C@H](C)[C@H](NC(=O)[C@H](CC(C)C)NC(=O)[C@@H](CC(C(=O)O)C(=O)O)NC(=O)[C@H](CC(=O)O)NC(C)=O)C(=O)N[C@@H](CC1CCCCC1)C(=O)N[C@@H](CS)C(=O)O (Ac-D[dGla]LI[Cha]C-OH) has Ki below 1000 nM. Can you tell?
Output: Y

Input: Strictly below 1000 nM: is that where Ki of CC(=O)N[C@@H](CCC(=O)O)C(=O)N[C@H](C(=O)N[C@@H](CCC(=O)O)C(=O)N[C@@H](CC1CCCCC1)C(=O)N[C@@H](CS)C(=O)O)C(c1ccccc1)c1ccccc1 (Ac-E[Dip]E[Cha]C-OH) sits?
Output: Y

Input: Consider CC(=O)N[C@@H](CC(=O)O)C(=O)N[C@@H](CCC(=O)O)C(=O)N[C@H](C(=O)N[C@@H](CCC(=O)O)C(=O)N[C@@H](CC1CCCCC1)C(=O)N[C@@H](CS)C(=O)O)C(c1ccccc1)c1ccccc1 (Ac-DE[Dip]E[Cha]C-OH) . Does its Ki lie strictly below 1000 nM?
Output: Y
